test system: OCUM-2MD3 cells; experiment: Cell growth inhibition, OCUM-2MD3 parent cells (Test Example 7); format: cell-based, human; conditions: Homo sapiens; OCUM-2MD3 parent cell
ASSAY_READOUT: IC50

[[record]]
compound_structure_string = "CCN1CCN(c2ccc(Nc3cc(N(C)C(=O)Nc4c(Cl)c(OC)cc(OC)c4Cl)ncn3)cc2)CC1"
assay_readout = "IC50"
value_measured = "7.6 nM"


----------
target: purified recombinant human FGFR2 protein (Homo sapiens (Human), UniProt P21802); test: Inhibitory effect on FGFR2 kinase activity (Test Example 1); conditions: ATP 75 μM
Sequence (P21802 22-821): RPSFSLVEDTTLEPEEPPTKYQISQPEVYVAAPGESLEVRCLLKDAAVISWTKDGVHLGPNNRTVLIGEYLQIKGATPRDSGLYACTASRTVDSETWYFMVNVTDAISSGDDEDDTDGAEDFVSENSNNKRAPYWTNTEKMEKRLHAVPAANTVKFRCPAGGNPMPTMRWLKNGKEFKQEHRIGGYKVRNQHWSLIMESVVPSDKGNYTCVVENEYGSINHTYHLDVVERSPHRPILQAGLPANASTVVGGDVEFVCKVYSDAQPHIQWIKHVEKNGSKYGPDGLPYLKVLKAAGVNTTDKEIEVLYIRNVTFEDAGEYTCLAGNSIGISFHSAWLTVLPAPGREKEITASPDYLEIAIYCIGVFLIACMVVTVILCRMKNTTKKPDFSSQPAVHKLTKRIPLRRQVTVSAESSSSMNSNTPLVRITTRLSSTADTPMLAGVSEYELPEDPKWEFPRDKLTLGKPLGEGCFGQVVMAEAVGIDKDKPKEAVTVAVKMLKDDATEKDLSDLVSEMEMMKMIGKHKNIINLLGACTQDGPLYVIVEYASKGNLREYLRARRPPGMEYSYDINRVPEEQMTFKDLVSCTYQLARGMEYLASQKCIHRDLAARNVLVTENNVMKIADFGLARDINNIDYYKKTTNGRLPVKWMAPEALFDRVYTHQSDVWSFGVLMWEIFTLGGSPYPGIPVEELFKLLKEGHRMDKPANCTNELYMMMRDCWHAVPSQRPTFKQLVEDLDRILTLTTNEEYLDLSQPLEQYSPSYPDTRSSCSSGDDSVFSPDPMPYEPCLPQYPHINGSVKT
Measured IC50 values are reported for all entries that follow.
ASSAY_READOUT: IC50

[[record]]
compound_structure_string = "C=CC(=O)N1C[C@@H](n2cc(C#Cc3cc(OC)cc(OC)c3)c3c(N)ncnc32)C[C@H]1C(=O)OC"
measured_on = "purified recombinant human FGFR2 protein (Homo sapiens (Human), UniProt P21802)"
assay_readout = "IC50"
value_measured = "< 0.0003 µM"

[[record]]
compound_structure_string = "CC(C)c1cc(C#Cc2nn([C@H]3CCN(C(=O)/C=C/CN(C)C)C3)c3ncnc(N)c23)cc(C(C)C)c1"
measured_on = "purified recombinant human FGFR2 protein (Homo sapiens (Human), UniProt P21802)"
assay_readout = "IC50"
value_measured = "> 10 µM"

